details: in isopentanol, 278.15 K
testReadout: solubility (mole fraction)
One number for each entry.

Request: Find the recorded solubility (mole fraction) belonging to N[C@@H](CC(=O)N1CCn2c(nnc2C(F)(F)F)C1)Cc1cc(F)c(F)cc1F and report it.
Response: 0.00453

----------
settings: in water, 308.15 K
testReadout: solubility (mole fraction)
One number for each entry.

Request: I'd like to know its solubility (mole fraction). The molecule in question is N[C@@H](CC(=O)N1CCn2c(nnc2C(F)(F)F)C1)Cc1cc(F)c(F)cc1F
Response: 0.000499

----------
conditions: in sec-butanol, 303.15 K
testReadout: solubility (mole fraction)
Answers are plain numbers.

Request: May I ask what solubility (mole fraction) has been recorded for N[C@@H](CC(=O)N1CCn2c(nnc2C(F)(F)F)C1)Cc1cc(F)c(F)cc1F ?
Response: 0.00958

----------
details: in THF, 298.15 K
testReadout: solubility (mole fraction)
Answers are plain numbers.

Request: Find the recorded solubility (mole fraction) belonging to N[C@@H](CC(=O)N1CCn2c(nnc2C(F)(F)F)C1)Cc1cc(F)c(F)cc1F and report it.
Response: 0.0463

----------
conditions: in THF, 323.25 K
testReadout: solubility (mole fraction)

Request: Look up solubility (mole fraction): N[C@@H](CC(=O)N1CCn2c(nnc2C(F)(F)F)C1)Cc1cc(F)c(F)cc1F
Response: 0.114

----------
details: in ethyl acetate, 313.15 K
testReadout: solubility (mole fraction)
Numbers only.

Request: I am curious: what solubility (mole fraction) value has been reported for N[C@@H](CC(=O)N1CCn2c(nnc2C(F)(F)F)C1)Cc1cc(F)c(F)cc1F ?
Response: 0.0353

----------
details: in methyl acetate, 308.15 K
testReadout: solubility (mole fraction)
Answers are plain numbers.

Request: Suppose we examine the molecule N[C@@H](CC(=O)N1CCn2c(nnc2C(F)(F)F)C1)Cc1cc(F)c(F)cc1F ; what solubility (mole fraction) value has been reported?
Response: 0.0954

----------
conditions: in isopropanol, 283.15 K
testReadout: solubility (mole fraction)
Give bare numbers.

Request: Look up solubility (mole fraction): N[C@@H](CC(=O)N1CCn2c(nnc2C(F)(F)F)C1)Cc1cc(F)c(F)cc1F
Response: 0.00579

----------
conditions: in ethanol, 293.15 K
testReadout: solubility (mole fraction)

Request: I'd like to know its solubility (mole fraction). The compound in question is N[C@@H](CC(=O)N1CCn2c(nnc2C(F)(F)F)C1)Cc1cc(F)c(F)cc1F
Response: 0.0233

----------
details: in isopropanol, 273.15 K
testReadout: solubility (mole fraction)

Request: Any idea what solubility (mole fraction) was measured for N[C@@H](CC(=O)N1CCn2c(nnc2C(F)(F)F)C1)Cc1cc(F)c(F)cc1F ?
Response: 0.00439

----------
conditions: in acetonitrile, 298.15 K
testReadout: solubility (mole fraction)
Give bare numbers.

Request: Give the measured solubility (mole fraction) of N[C@@H](CC(=O)N1CCn2c(nnc2C(F)(F)F)C1)Cc1cc(F)c(F)cc1F .
Response: 0.0576

----------
details: in isopentanol, 308.15 K
testReadout: solubility (mole fraction)
Numbers only.

Request: I am curious: what solubility (mole fraction) value has been reported for N[C@@H](CC(=O)N1CCn2c(nnc2C(F)(F)F)C1)Cc1cc(F)c(F)cc1F ?
Response: 0.0154

Where do these numbers come from? They come from BigSolDB 2.1.
